The values you see were collected from patent US6197225A.

method-notes: Aging promotion testing: sunlight 30 min / fading one hour cycles, 10 days (durability, coloring degree)
Assay type: physicochemical
test-conditions: YI(10)-YI(0), single chromene compound in polymer, 10 days aging; Table 5
reported-metric: Change in the coloring degree ΔYI

Example cases with answers are listed next.
1. COc1ccc(C2(c3ccc(OC)cc3)C=Cc3c(C)cc4c(OC)cccc4c3O2)cc1 [Compound 33]
2.2
2. CCC(C)(C)c1cc2ccccc2c2c1C=CC(c1ccc(OC)cc1)(c1ccco1)O2 (centres unmarked) [Compound 3]
2.0
3. COc1ccc(C2(c3ccc(OC(F)(F)F)cc3)C=Cc3c(C(C)C)cc4ccccc4c3O2)cc1 (centres unmarked) [Compound 15]
1.2
4. CCCc1cc2ccccc2c2c1C=CC(c1ccc(OC)cc1)(c1ccc(OC)cc1)O2 [Compound 35]
2.3
5. CCC(C)c1cc2ccccc2c2c1C=CC1(O2)C2CCCC1CCC2 (centres unmarked) [Compound 23]
2.0
6. CCCc1cc2c(CC)cc(OCC)cc2c2c1C=CC(c1ccc(OC)cc1)(c1cccs1)O2 (centres unmarked) [Compound 40]
2.7
7. COc1ccc(C2(c3ccc(OC(F)(F)F)cc3)C=Cc3c(C)cc4ccccc4c3O2)cc1 (centres unmarked) [Compound 30]
2.4
8. COc1ccc(C2(c3ccc(OC)cc3)C=Cc3c(C)cc4cc(-c5ccccc5)ccc4c3O2)cc1 [Compound 37]
2.5
9. CC(C)c1cc2ccccc2c2c1C=CC(c1ccccc1)(c1ccccc1)O2 [Compound 12]
1.0
10. CC(=O)Oc1ccc2c3c(c(C(C)C)cc2c1)C=CC(c1ccc(C)cc1)(c1ccc(C)cc1)O3 [Compound 10]
1.5

Can you share its Change in the coloring degree ΔYI? I mean this compound: COc1ccc(C2(c3ccc(OC)c(F)c3)C=Cc3c(C)cc4ccccc4c3O2)cc1 (centres unmarked) [Compound 34]
2.4

How about this compound: COc1ccc(C2(c3ccco3)C=Cc3c(C)cc4ccccc4c3O2)cc1F (centres unmarked) [Compound 31]
3.0

// same read-out, input: C1=CC2(Oc3c1ccc1ccccc31)C1CCCC2CCC1 (centres unmarked) [d, reference compound]
1.5

// repeat for CC(C)c1cc2cc(O)ccc2c2c1C=CC(c1cccs1)(c1cccs1)O2 [Compound 9] and report
2.2

Query CCOC(=O)C1=CC(c2ccccc2)(c2ccccc2)Oc2c1cc(C)c1ccccc21 [b, reference compound] next
6.5

What do we get for CC(C)(C)c1cc2ccccc2c2c1C=CC1(O2)C2CC3CC(C2)CC1C3 (centres unmarked) [Compound 24] ?
5.0

Request: CC(C)c1cc2ccccc2c2c1C=CC1(O2)C2CC3CC(C2)CC1C3 (centres unmarked) [Compound 25]
2.2
